The following compounds are shown together with reported inhibition values.
target-system: Tyrosine-protein kinase Fer (Homo sapiens) (UniProt P16591)
Sequence (P16591 whole entry, looked up): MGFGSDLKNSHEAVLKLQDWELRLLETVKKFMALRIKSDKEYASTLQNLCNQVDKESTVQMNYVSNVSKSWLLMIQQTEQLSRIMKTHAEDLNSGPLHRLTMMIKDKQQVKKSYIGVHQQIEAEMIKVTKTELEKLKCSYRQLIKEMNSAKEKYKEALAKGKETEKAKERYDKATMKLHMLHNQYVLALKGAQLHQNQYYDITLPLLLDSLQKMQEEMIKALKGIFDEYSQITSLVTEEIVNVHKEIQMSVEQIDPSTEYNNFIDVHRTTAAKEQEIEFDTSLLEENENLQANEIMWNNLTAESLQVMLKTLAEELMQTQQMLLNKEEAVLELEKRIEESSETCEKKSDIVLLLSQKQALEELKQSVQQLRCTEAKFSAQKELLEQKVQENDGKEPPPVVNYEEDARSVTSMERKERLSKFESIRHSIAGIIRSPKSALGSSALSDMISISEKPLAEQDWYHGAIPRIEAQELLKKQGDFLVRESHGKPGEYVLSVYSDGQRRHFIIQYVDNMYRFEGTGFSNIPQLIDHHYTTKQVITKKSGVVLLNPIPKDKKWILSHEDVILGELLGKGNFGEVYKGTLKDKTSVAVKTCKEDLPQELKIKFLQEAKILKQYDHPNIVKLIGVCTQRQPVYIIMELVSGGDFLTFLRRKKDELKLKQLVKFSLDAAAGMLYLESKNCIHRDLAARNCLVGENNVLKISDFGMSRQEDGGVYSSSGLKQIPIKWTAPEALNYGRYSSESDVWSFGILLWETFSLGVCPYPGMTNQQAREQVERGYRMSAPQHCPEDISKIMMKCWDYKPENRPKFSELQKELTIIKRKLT
condition-summary: at 1 µM
Description: GSK_PKIS: FER mean inhibition at 1 uM [Nanosyn]
value-type: inhibition (%)

{"test-smiles": "NS(=O)(=O)c1cccc(Nc2cc(-c3ccc(F)cc3)n[nH]2)c1", "value-type": "inhibition", "value-measured": 6.71}
{"test-smiles": "COC(=O)c1cncc(/C=C/c2c(C)cc(O)cc2C)c1", "value-type": "inhibition", "value-measured": 2}
{"test-smiles": "CN(C)C(=O)O[C@@H]1CN[C@@H](C#Cc2cc3ncnc(Nc4ccc(OCc5cccc(F)c5)c(Cl)c4)c3s2)C1", "value-type": "inhibition", "value-measured": -0.72}
{"test-smiles": "ON=C1CCc2cc(-c3nc(C4CCNCC4)[nH]c3-c3ccncc3)ccc21", "value-type": "inhibition", "value-measured": 0.21}
{"test-smiles": "[O-][S+]1CCN(Cc2ccc(-c3ccc4ncnc(Nc5ccc(OCc6ccccc6)c(Cl)c5)c4c3)o2)CC1", "value-type": "inhibition", "value-measured": 4.1}
{"test-smiles": "COc1cccc(-n2ncc3c(N/N=C/c4ccc(C)cc4)ncnc32)c1", "value-type": "inhibition", "value-measured": 17.5}
{"test-smiles": "OCc1ccc(-c2nc(-c3ccccn3)c(-c3ccc4c(c3)OCO4)[nH]2)cc1", "value-type": "inhibition", "value-measured": 5.49}
{"test-smiles": "CN(C)c1cc2c(Nc3ccc4c(cnn4Cc4ccccc4)c3)ncnc2cn1", "value-type": "inhibition", "value-measured": 7.22}
{"test-smiles": "CS(=O)(=O)Nc1cccc(-c2ccc3c(NC(=O)C4CC4)n[nH]c3c2)c1", "value-type": "inhibition", "value-measured": 0.02}
{"test-smiles": "COC(=O)c1ccc2c(c1)C(=Cc1cc(Br)c(O)c(Br)c1)C(=O)N2", "value-type": "inhibition", "value-measured": 7.48}

Where do these numbers come from? They come from ChEMBL document CHEMBL1961873.
